# assay: Toxicity against brine shrimp assessed as mortality at 25 ppm after 24 hrs
# Assay type: organism-based
# condition.description: artemia, in vivo; read-out: Activity
Measured mortality at 24 h, 25 ppm, listed per entry for reference.
# unit: % | format: bare number

- smiles.data: "CC(=O)/C=C/c1c[nH]c2ccccc12"
  readout.type: "mortality at 24 h, 25 ppm"
  u: "%"
  obs.value: 39
- smiles.data: "CC(=O)/C=C/c1ccc(C)c(C)c1C"
  readout.type: "mortality at 24 h, 25 ppm"
  u: "%"
  obs.value: 100
- smiles.data: "CC(=O)c1nccc2c1[nH]c1ccccc12"
  readout.type: "mortality at 24 h, 25 ppm"
  u: "%"
  obs.value: 100

Query string: Looking for the measured mortality at 24 h, 25 ppm of CC(=O)/C=C/Cc1c[nH]c2ccccc12 , can you help?
Result string: 91

Query string: Looking for the measured mortality at 24 h, 25 ppm of CC(=O)/C=C/C(C)=C(\C)c1c[nH]c2ccccc12 , can you help?
Result string: 70

Origin of measurements: ChEMBL document CHEMBL1158971
